Test system: johnsongrass (Sorghum halepense)
Assay: Test C pre-/postemergence: johnsongrass
Assay type: in vivo
Conditions: Preemergence, 62 g ai/ha; scale of 0 to 100, 0 is no effect, 100 is complete control
Use MET when the recorded Plant response rating, Johnsongrass is no lower than 40; use NOT MET when it is lower.

{"compound": "Cc1nn(-c2ccc(C(F)(F)F)cc2)nc1Cc1ccnc(C(F)(F)F)c1 [Compound 47]", "class name": "NOT MET"}

Determine whether this compound has Plant response rating, Johnsongrass no lower than 40: Cc1nn(-c2ccc(F)c(F)c2)nc1Oc1ccnc(C(F)(F)F)c1 [Compound 145] NOT MET

Input Fc1ccc(-n2nc(Cc3ccnc(C(F)(F)F)c3)c(OCC(F)(F)F)n2)cc1 [Compound 142] MET

Input CCCc1nn(-c2ccc(F)cc2)nc1Cc1ccnc(C(F)(F)F)c1 [Compound 153] MET

Input CCc1nn(-c2ccc(F)cc2)nc1Oc1ccnc(C(F)(F)F)c1 [Compound 166] NOT MET

====

Tested on: rice (Oryza sativa)
Experiment: Test B flooded paddy: rice
Assay type: in vivo
Conditions: Flood; 250 g ai/ha; applied to paddy water at 2-leaf stage; visually evaluated after 13 to 15 days
Description: Seeds selected from rice (Oryza sativa), sedge, umbrella (small-flower umbrella sedge Cyperus difformis), ducksalad (Heteranthera limosa), and barnyardgrass (Echinochloa crus-galli) were grown to the 2-leaf stage for testing. […] Treated plants and controls were maintained in a greenhouse for 13 to 15 days, after which time all species were compared to controls and visually evaluated. […]
Form field: Plant response rating, Rice (0 to 100 scale, 0 is no effect, 100 is complete control) (one value per entry).

Recorded Plant response rating, Rice (0 to 100 scale, 0 is no effect, 100 is complete control), per entry:
{"smiles notation": "Cc1nn(-c2ccc(F)cc2)nc1Oc1ccc(F)c(C(F)(F)F)c1", "result": 40}
{"smiles notation": "Cc1nn(-c2ccnc(Cl)c2)nc1C(=O)c1cccc(C(F)(F)F)c1", "result": 0}
{"smiles notation": "CCc1nn(-c2ccc(F)cc2)nc1Cc1cccc(C(F)(F)F)c1", "result": 20}
{"smiles notation": "COc1nn(-c2ccc(F)cc2)nc1Oc1ccnc(C(F)(F)F)c1", "result": 35}
{"smiles notation": "Cc1cc(Oc2nn(-c3ccc(F)cc3)nc2C)ccc1F", "result": 0}

Attention now shifts to the item below.
Consider the compound shown here: CCOc1nn(-c2ccc(F)cc2)nc1Cc1ccnc(C(F)F)c1 What is its recorded Plant response rating, Rice (0 to 100 scale, 0 is no effect, 100 is complete control)? 60

====

Test system: velvetleaf (Abutilon theophrasti)
Test: Test A pre-/postemergence: velvetleaf
Type: in vivo
Details: Postemergence, 500 g ai/ha; visual rating on 0 to 100 scale (0 no effect, 100 complete control), approximately ten days
Use satisfied when the recorded Velvetleaf plant response rating is no lower than 80; use not satisfied when it is lower.

{"smiles notation": "OCc1nn(-c2ccc(C(F)(F)F)cc2)nc1Oc1cccc(C(F)(F)F)c1", "test target": "velvetleaf (Abutilon theophrasti)", "class name": "not satisfied"}
{"smiles notation": "CCCc1nn(-c2ccc(F)cc2)nc1Cc1ccnc(C(F)(F)F)c1", "test target": "velvetleaf (Abutilon theophrasti)", "class name": "satisfied"}
{"smiles notation": "Fc1ccc(-n2nc(Cc3ccnc(C(F)(F)F)c3)c(OCC(F)(F)F)n2)cc1", "test target": "velvetleaf (Abutilon theophrasti)", "class name": "satisfied"}
{"smiles notation": "Cc1nn(-c2cccc(C(F)(F)F)c2)nc1Oc1cccc(C(F)(F)F)c1", "test target": "velvetleaf (Abutilon theophrasti)", "class name": "not satisfied"}
{"smiles notation": "Cc1nn(-c2ccc(F)cc2)nc1Oc1ccc(F)c(C(F)(F)F)c1", "test target": "velvetleaf (Abutilon theophrasti)", "class name": "satisfied"}
{"smiles notation": "Cc1nn(-c2ccc(F)cc2)nc1Oc1ccc(Cl)c(C(F)(F)F)c1", "test target": "velvetleaf (Abutilon theophrasti)", "class name": "not satisfied"}
{"smiles notation": "CCc1nn(-c2ccc(C(F)(F)F)cc2)nc1Cn1cc(C(F)(F)F)nc1Cl", "test target": "velvetleaf (Abutilon theophrasti)", "class name": "satisfied"}
{"smiles notation": "Cc1nn(-c2ccnc(F)c2)nc1C(=O)c1cccc(C(F)(F)F)c1", "test target": "velvetleaf (Abutilon theophrasti)", "class name": "not satisfied"}
{"smiles notation": "Cc1nn(-c2ccccc2[N+](=O)[O-])nc1C(=O)c1cccc(C(F)(F)F)c1", "test target": "velvetleaf (Abutilon theophrasti)", "class name": "not satisfied"}
{"smiles notation": "CSc1ccc(-n2nc(C)c(C(=O)c3cccc(C(F)(F)F)c3)n2)cc1", "test target": "velvetleaf (Abutilon theophrasti)", "class name": "not satisfied"}

Determine whether this molecule has Velvetleaf plant response rating no lower than 80: Cc1nn(-c2ccc(F)cc2)nc1Cn1cnc(C(F)(F)F)c1Cl not satisfied

Input Cc1nn(-c2ccccc2)nc1C(=O)c1cccc(C(F)(F)F)c1 not satisfied

Input Cc1nn(-c2cccc(C(F)(F)F)c2)nc1Oc1ccnc(C(F)(F)F)c1 satisfied

Input Cc1nn(-c2ccc(F)cc2)nc1Oc1cc(C(F)(F)F)ccn1 not satisfied
